# System: Escherichia coli BW25113
Quick reference for MIC among some compounds
Kindly answer with a numeric value in µM, unit omitted.

Solved entries:
# compound-smiles, quantity-measured, result-units, reported-measurement
data = [
    ("CC[C@H](C)[C@H](NC(=O)[C@@H]1CCCN1C(=O)[C@@H]1CCCN1C(=O)[C@H](CCCN=C(N)N)NC(=O)[C@H](Cc1ccccc1)NC(=O)[C@@H](N)CCCN=C(N)N)C(=O)N[C@@H](CCCN=C(N)N)C(=O)N[C@@H](CCCN=C(N)N)C(=O)N1CCC[C@H]1C(=O)N1CCC[C@H]1C(=O)N[C@H](C(=O)N[C@@H](CCCN=C(N)N)C(=O)N1CCC[C@H]1C(=O)N1CCC[C@H]1C(=O)N[C@@H](Cc1ccccc1)C(=O)N[C@@H](Cc1ccc(O)cc1)C(=O)N1CCC[C@H]1C(=O)O)[C@@H](C)CC", "MIC", "µM", 11.3),
    ("CC(C)C[C@H](NC(=O)[C@H](CCCN=C(N)N)NC(=O)[C@@H]1CCCN1C(=O)[C@H](CCCN=C(N)N)NC(=O)[C@@H]1CCCN1C(=O)[C@@H]1CCCN1C(=O)[C@H](CCCN=C(N)N)NC(=O)[C@@H]1CCCN1C(=O)[C@H](CCC(N)=O)NC(=O)[C@@H]1CCCN1C(=O)[C@H](CCCCN)NC(=O)[C@H](Cc1ccc(O)cc1)NC(=O)[C@@H](NC(=O)[C@@H]1CCCN1C(=O)[C@H](CCCCN)NC(=O)[C@H](CC(N)=O)NC(=O)[C@H](CC(N)=O)NC(=O)CN)C(C)C)C(=O)O", "MIC", "µM", 0.096),
    ("CC(C)C[C@H](NC(=O)[C@H](CCCN=C(N)N)NC(=O)[C@@H]1CCCN1C(=O)[C@H](CCCN=C(N)N)NC(=O)[C@@H]1CCCN1C(=O)[C@@H]1CCCN1C(=O)[C@H](CCCN=C(N)N)NC(=O)[C@@H]1CCCN1C(=O)[C@H](CCC(N)=O)NC(=O)[C@@H]1CCCN1C(=O)[C@H](CCCCN)NC(=O)[C@H](Cc1ccc(O)cc1)NC(=O)[C@@H](NC(=O)[C@@H]1CCCN1C(=O)[C@H](CCCN=C(N)N)NC(=O)[C@H](CC(N)=O)NC(=O)[C@H](CC(N)=O)NC(=O)CN)C(C)C)C(=O)O", "MIC", "µM", 0.067),
    ("CC[C@H](C)[C@H](NC(=O)[C@H](CCCN=C(N)N)NC(=O)[C@@H](N)Cc1c[nH]c2ccccc12)C(=O)N[C@@H](CCCN=C(N)N)C(=O)N1CCC[C@H]1C(=O)N[C@@H](CCCN=C(N)N)C(=O)N1CCC[C@H]1C(=O)N1CCC[C@H]1C(=O)N[C@@H](CCCN=C(N)N)C(=O)N[C@@H](CC(C)C)C(=O)N1CCC[C@H]1C(=O)N[C@@H](CCCN=C(N)N)C(=O)N[C@@H](Cc1c[nH]c2ccccc12)C(=O)N[C@@H](CCCN=C(N)N)C(=O)N1CCC[C@H]1C(=O)N[C@@H](CCCN=C(N)N)C(=O)O", "MIC", "µM", 2),
]

Now look at this entry.
So the reported MIC for `CC[C@H](C)[C@H](NC(=O)[C@@H]1CCCN1C(=O)[C@H](CCCN=C(N)N)NC(=O)[C@H](CCCN=C(N)N)NC(=O)[C@H](CCCN=C(N)N)NC(=O)[C@@H](NC(=O)[C@@H]1CCCN1C(=O)[C@@H]1CCCN1C(=O)[C@H](CCCN=C(N)N)NC(=O)[C@H](Cc1ccccc1)NC(=O)[C@@H](N)CCCN=C(N)N)[C@@H](C)CC)C(=O)N[C@@H](CCCN=C(N)N)C(=O)N1CCC[C@H]1C(=O)N1CCC[C@H]1C(=O)N[C@@H](Cc1ccccc1)C(=O)N[C@@H](Cc1ccc(O)cc1)C(=O)N1CCC[C@H]1C(=O)O` , on Escherichia coli BW25113, turned out to be 8
